# Tested on: MCF7 breast
# ASSAY: NCI-60 one-dose screen, 48 h (100 = growth as untreated, 0 = no growth, -100 = all killed)
# CONDITION_DESCRIPTION: 10 µM unless noted
The panel holds about 83,000 compounds, 20% with a hit somewhere; the sample as a whole holds those more often.
READOUT: growth (%)
Form entry: value (%) — number only.

Which value of growth has been reported for CCOC(C=O)OCC in the records? 95.4

Which value of growth has been reported for CCC(C)c1c(N)n(S(=O)(=O)c2ccc(C)cc2)oc1=O (stereo not drawn) in the records? 108

Which value of growth has been reported for N=C(N)c1nn(C2OC(CO)C(O)C2O)c2nc[nH]c(=O)c12 (stereo not drawn) in the records? 4.19

Which value of growth has been reported for COc1cc(OC)c2cc(C(=O)c3ccc(C#N)cc3)c(=O)oc2c1 in the records? 97.1

Which value of growth has been reported for C=C(c1ccc(N(C)C)cc1)c1ccc(N(C)C)cc1 in the records? 13.5

Which value of growth has been reported for CC(CC(CCC(=O)O)(c1ccccc1)c1ccccc1)N(C)C (stereo not drawn) in the records? 91.2

Which value of growth has been reported for CCOC(=O)c1c[nH][nH]c1=O in the records? 92.4

Which value of growth has been reported for CCCCCCCCCCC(=O)CCCCCCCCCC in the records? 101

Which value of growth has been reported for COc1nc(Nc2cccc(C(F)(F)F)c2)nc(OC)n1 in the records? 97.9

Which value of growth has been reported for CCOc1ccc2c(c1)c(C)cc(C)[n+]2CC in the records? 72.3

Which value of growth has been reported for Cc1ccc(NC(=O)c2ccccc2Cl)cc1 in the records? 99.4

Which value of growth has been reported for Nc1cc(F)ccc1[N+](=O)[O-] in the records? 97.6

Which value of growth has been reported for CC(C)NC(=O)OCc1c(COC(=O)NC(C)C)c(-c2ccc(Cl)cc2)n2c1CCC2 in the records? 41.2

----------
Kindly supply the reported growth values for the records listed here.
# Test system: K-562 leukemia
# ASSAY: NCI-60 one-dose screen, 48 h (100 = growth as untreated, 0 = no growth, -100 = all killed)
# CONDITION_DESCRIPTION: 10 µM unless noted
The panel holds about 83,000 compounds, 20% with a hit somewhere; the sample as a whole holds those more often.
Form entry: value (%) — number only.

Provide value of growth for this record tested with K-562 leukemia: Cc1ccnc(Nc2nc3ccccc3[nH]2)n1 97.8

Provide value of growth for this record tested with K-562 leukemia: ClCc1cccc2c(CCl)cccc12 79.2

Provide value of growth for this record tested with K-562 leukemia: CCN(CC)CCN1CNC(=S)NC1 102

Provide value of growth for this record tested with K-562 leukemia: Clc1cccc(Cl)c1CSc1nc2ccccc2n2cccc12 89

Provide value of growth for this record tested with K-562 leukemia: CCc1ccccc1C(=O)N(CC)CC 106

Provide value of growth for this record tested with K-562 leukemia: Cc1ccc(NC(=S)N2CCOCC2)cc1C 95.4

Provide value of growth for this record tested with K-562 leukemia: CCOC(OCC)C(=O)c1ccccc1 109

Provide value of growth for this record tested with K-562 leukemia: O=S(=O)(O)c1cccc2cccnc12 107

Provide value of growth for this record tested with K-562 leukemia: OCCNc1ccccc1 104

Provide value of growth for this record tested with K-562 leukemia: OCCc1ccc(Cl)cc1 99.9

Provide value of growth for this record tested with K-562 leukemia: OC1Cc2ccccc2C1 48.3

Provide value of growth for this record tested with K-562 leukemia: CS(=O)(=O)c1ccc(/C=C\C(=O)O)cc1 122

Provide value of growth for this record tested with K-562 leukemia: S=CN1CCCCC1 101

Provide value of growth for this record tested with K-562 leukemia: CC(C)c1ccc(C(=O)OCCCl)cc1 103

Provide value of growth for this record tested with K-562 leukemia: COc1nc(Nc2cccc(C(F)(F)F)c2)nc(OC)n1 87
